# target-or-system: T1, recombinant human IL-23 (p19/p40) (human, UniProt Q9NPF7 20-189; P29460 23-328)
# T1 sequence (looked up) 1: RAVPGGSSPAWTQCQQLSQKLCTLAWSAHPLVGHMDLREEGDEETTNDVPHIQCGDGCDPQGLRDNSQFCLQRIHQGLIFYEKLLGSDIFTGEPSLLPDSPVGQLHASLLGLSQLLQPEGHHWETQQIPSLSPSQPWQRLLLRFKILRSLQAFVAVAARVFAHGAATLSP
# T1 sequence (looked up) 2: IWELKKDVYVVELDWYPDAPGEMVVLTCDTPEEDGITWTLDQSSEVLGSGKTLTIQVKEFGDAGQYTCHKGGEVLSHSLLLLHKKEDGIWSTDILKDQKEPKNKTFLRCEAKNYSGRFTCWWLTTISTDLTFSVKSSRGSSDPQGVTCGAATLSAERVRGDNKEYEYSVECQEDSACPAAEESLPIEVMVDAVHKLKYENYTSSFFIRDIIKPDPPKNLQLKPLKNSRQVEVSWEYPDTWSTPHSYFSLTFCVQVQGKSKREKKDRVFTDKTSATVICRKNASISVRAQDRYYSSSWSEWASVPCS
# protocol-description: cell-based or functional assay
parameter-measured: IC50, splenocyte assay, 19 pM hIL-23

IC50, splenocyte assay, 19 pM hIL-23 lookup needed for P23IL119A3-35GS-81G2 (bispecific antibody) EVQLVESGGGLVQAGGSLRLSCAASGRIFSLPASGNIFNLLTIAWHRQAPGMQRELVATINSGSRTNYADSVKGRFTISRDNAQKTVYLQMNNLKPEDTAVYYCQTSGSGSPNFWGQGTQVTVSSGGGGSGGGGSGGGGSGGGGSGGGGSGGGGSGGGGSEVQLVESGGGLVQPGGSLRLSCIASGLPFSTKSMGWFRQAPGKEREFVARISPGGTSRYYGDFVKGRFAISRDNAKNTTWLQMNSLKAEDTAVYYCASGERSTYIGSNYYRTNEYDYWGTGTQVTVSS , thanks.
14 pM

Source: patent US20110053865A1
